# assaySystem: hlFBPase (Homo sapiens, UniProt P09467)
# Sequence (P09467 2-338 limits assumed): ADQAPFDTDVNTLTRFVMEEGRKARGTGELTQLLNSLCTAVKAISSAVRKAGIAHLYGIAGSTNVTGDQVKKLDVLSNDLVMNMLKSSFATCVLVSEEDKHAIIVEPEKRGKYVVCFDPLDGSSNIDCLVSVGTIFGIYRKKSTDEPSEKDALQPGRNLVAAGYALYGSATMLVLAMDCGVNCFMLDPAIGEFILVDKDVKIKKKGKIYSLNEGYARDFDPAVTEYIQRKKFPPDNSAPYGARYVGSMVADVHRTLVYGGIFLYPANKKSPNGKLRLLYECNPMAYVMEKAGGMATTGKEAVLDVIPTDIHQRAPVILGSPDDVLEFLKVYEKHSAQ
# protocolNotes: AMP site binding (displacement of radiolabeled AMP)
# measurementParameters: displacement of 3H-AMP from hlFBPase; read-out: ED50 for AMP displacement
recordedMetric: pEC50
Hey, just a heads up that pEC50 is the negative log base 10 of the concentration in molar.

CCn1c(-c2ccc(P(=O)(O)O)o2)nc2c(N)cccc21 = 4.30

Continue with the compound presented below.
Req: Give the measured pEC50 of NC(=O)c1ncn([C@@H]2O[C@H](COP(=O)(O)O)[C@@H](O)[C@H]2O)c1N [ZMP, reference compound] .
Resp: 3.60

---

# System: rat hepatocytes
# protocolNotes: Inhibition of gluconeogenesis in rat hepatocytes
# Format: cell-based
# measurementParameters: Hepatocyte; glucose production from lactate/pyruvate, isolated rat hepatocytes, 1 hour
pIC50 values by entry
Hey, just a heads up that pIC50 is the negative log base 10 of the concentration in molar.

Please review the entries below; each comes with its answer.
CC(C)Cn1c(-c2ccc(P(=O)(O)O)o2)nc2c(N)c(F)ccc21 = 5.62
CC(C)Cn1c(-c2ccc(P(=O)(O)O)o2)nc2c(N)c(F)cc(CCCO)c21 = 6.00
CC(C)Cn1c(-c2ccc(P(=O)(O)O)o2)nc2c(N)c(F)c(Cl)cc21 = 4.80
CC(C)Cn1c(-c2ccc(P(=O)(O)O)o2)nc2c(N)c(F)cc(Br)c21 = 5.30
Nc1c(F)ccc2c1nc(-c1ccc(P(=O)(O)O)o1)n2CC1CC1 = 5.48
CC(C)Cn1c(-c2ccc(P(=O)(O)O)o2)nc2c(N)c(F)cc(CCCCBr)c21 = 5.66
CC(C)Cn1c(-c2ccc(P(=O)(O)O)o2)nc2c(N)c(F)cc(CCCBr)c21 = 5.80

Continue with the molecule presented below.
Req: Give the measured pIC50 of CCc1cc(F)c(N)c2nc(-c3ccc(P(=O)(O)O)o3)n(CC(C)C)c12 .
Resp: 5.60

---

# Test system: rat hepatocytes
# protocolNotes: Inhibition of gluconeogenesis in rat hepatocytes
# Type: cell-based
# measurementParameters: glucose production from lactate/pyruvate, isolated rat hepatocytes, 1 hour
recordedMetric: pIC50
Hey, just a heads up that pIC50 is the negative log base 10 of the concentration in molar.

CC(C)Cn1c(-c2ccc(P(=O)(O)O)o2)nc2c(N)c(Br)cc(Br)c21 = 4.85
CC(C)Cn1c(-c2ccc(P(=O)(OCOC(=O)C(C)(C)C)OCOC(=O)C(C)(C)C)o2)nc2c(N)c(Cl)cc(Cl)c21 = 4.77

Req: Give the measured pIC50 of CC(C)Cn1c(-c2ccc(P(=O)(O)O)o2)nc2c(N)c(Br)ccc21 .
Resp: 4.85

---

% Oral bioavailability values by entry
# protocolNotes: Estimation of the oral bioavailability of prodrugs of phosphonic acids
# Type: in vivo
# measurementParameters: rat, prodrug by oral gavage approximately 20 or 40 mg/kg parent equivalents, urinary recovery of parent vs i.v. parent
Note: state the figure and append the unit.

Please review the entries below; each comes with its answer.
COC(=O)OCC1COP(=O)(c2ccc(-c3nc4ccc(Cl)cc4n3CC(C)C)o2)OC1 (stereo not shown) [Compound 31.15] = 14.1%
CC(=O)OCC1COP(=O)(c2ccc(-c3nc4ccc(Cl)cc4n3CC(C)C)o2)OC1 (stereo not shown) [Compound 31.14] = 12.5%
CC(C)Cn1c(-c2ccc(P3(=O)OCC(CO)CO3)o2)nc2ccc(Cl)cc21 (stereo not shown) [Compound 31.13] = 10.9%

Continue with the molecule presented below.
Req: Give the measured % Oral bioavailability of CC(C)(C)Cn1c(-c2ccc(P(=O)(OCOC(=O)C(C)(C)C)OCOC(=O)C(C)(C)C)o2)nc2c(N)ncnc21 [Compound C] .
Resp: 5.3%
